Entries and their measured pKd follow.
- TARGET_OF_ASSAY: T1, human mature TGFβ2 (PeproTech) (Homo sapiens, UniProt P61812)
- T1 construct: Transforming Growth Factor-beta 2, human, mature form (cut from the precursor); also called TGFb2; source: bought: PeproTech
- TEST_METHOD_NOTES: SPR; Biacore T200; antibody captured on a Protein A sensor chip (about 90 RU); mature TGFβ isoform injected, five-fold dilutions 0.008 nM to 5 nM; HBS-EP pH 7.4, 150 mM NaCl; 37 °C; 100 μl/min; 3 min association, 60 min dissociation; one-to-one Langmuir model, global fit
- CONDITION: both partners purified
Note: pKd values are expressed as the negative base-10 logarithm of concentration in M.

Take a look at these entries with their results.
BINDER	PROPERTY	MEASURED
h4A11.v2.2 (antibody, V domains shown, as the VH of m7 (h4A11.v2) with the stated change; numbers count on: Kabat numbering of the heavy chain; as the VL of m7 (h4A11.v2); human IgG1; also called v2.2_Q81N; source: Expi293F, transient, purified (Protein A, SEC)) VH: EQQLVESGGGLVQPGGSLRLSCAVSGFSLSSYTVNWVRQAPGKGLEWIGYISYGGSAYYASWANGRFTISKDSAKNSVYLNMNSLRAEDTAVYFCARHMQVGGAPTGSMAAFDPWGPGTLVTVSS VL: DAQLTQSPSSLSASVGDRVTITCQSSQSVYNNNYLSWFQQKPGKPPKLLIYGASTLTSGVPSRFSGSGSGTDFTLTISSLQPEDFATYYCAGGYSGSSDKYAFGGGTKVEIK	pKd	11.35
h4A11.v7.4 (antibody, V domains shown, as the VH of m12 (h4A11.v7); numbers count on: Kabat numbering of the heavy chain; as the VL of m12 (h4A11.v7); human IgG1; also called v7.4_S19R, S79Y, K81R; source: Expi293F, transient, purified (Protein A, SEC)) VH: EQQLQESGPGLVKPSETLRLTCTVTGFSLSSYTVNWVRQPAGKGLEWIGYISYGGSAYYASWANGRFTISKDSSKNQVYLRLSSVTAADTAVYFCARHMQVGGAPTGSMAAFDPWGPGTLVTVSS VL: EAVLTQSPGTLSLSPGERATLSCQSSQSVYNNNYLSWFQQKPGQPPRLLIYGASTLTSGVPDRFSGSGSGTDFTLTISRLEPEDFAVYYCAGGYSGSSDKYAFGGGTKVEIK	pKd	10.95
h4A11.v2.1 (antibody, V domains shown, as the VH of m7 (h4A11.v2) with the stated change; numbers count on: Kabat numbering of the heavy chain; as the VL of m7 (h4A11.v2); human IgG1; also called v2.1_R19S; source: Expi293F, transient, purified (Protein A, SEC)) VH: EQQLVESGGGLVQPGGSLSLSCAVSGFSLSSYTVNWVRQAPGKGLEWIGYISYGGSAYYASWANGRFTISKDSAKNSVYLQMNSLRAEDTAVYFCARHMQVGGAPTGSMAAFDPWGPGTLVTVSS VL: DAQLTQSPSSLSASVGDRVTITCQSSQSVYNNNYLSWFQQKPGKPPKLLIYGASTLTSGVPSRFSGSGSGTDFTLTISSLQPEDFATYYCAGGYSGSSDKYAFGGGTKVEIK	pKd	11.66

Problem: Can you look up the measured pKd of h4A11.v7.6 (antibody, V domains shown, as the VH of m12 (h4A11.v7); numbers count on: Kabat numbering of the heavy chain; as the VL of m12 (h4A11.v7); human IgG1; also called v7.6_S19R, S79W, K81R; source: Expi293F, transient, purified (Protein A, SEC)) VH: EQQLQESGPGLVKPSETLRLTCTVTGFSLSSYTVNWVRQPAGKGLEWIGYISYGGSAYYASWANGRFTISKDSSKNQVWLRLSSVTAADTAVYFCARHMQVGGAPTGSMAAFDPWGPGTLVTVSS VL: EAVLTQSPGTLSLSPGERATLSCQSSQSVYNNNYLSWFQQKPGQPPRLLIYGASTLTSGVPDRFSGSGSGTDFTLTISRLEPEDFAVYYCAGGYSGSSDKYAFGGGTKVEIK for me?
Solution: 11.01
